Hi there, I'd appreciate the recorded inhibition for every entry that follows.
- Organism: Homo sapiens
- run-description: Inhibition of self-induced amyloid beta (1 to 42) (unknown origin) aggregation at 10 uM after 48 hrs by thioflavin-T fluorescence method relative to control

Form field: reported inhibition of "O=C(CCCCN1CCCCC1)Nc1cccc2c1C(=O)c1cccc3ccnc-2c13"
52.5%

Form field: reported inhibition of "O=C(CN1CCCCC1)Nc1cccc2c1C(=O)c1cccc3ccnc-2c13"
57.6%

Form field: reported inhibition of "O=C(CCN1CCCCC1)Nc1cccc2c1C(=O)c1cccc3ccnc-2c13"
76.1%

Form field: reported inhibition of "O=C(CCCCCN1CCCCC1)Nc1cccc2c1C(=O)c1cccc3ccnc-2c13"
55.7%

Form field: reported inhibition of "O=C(CCCCN1CCCCC1)Nc1c(Cl)ccc2c1-c1nccc3cccc(c13)C2=O"
71.2%

Form field: reported inhibition of "O=C(CCCN1CCCCC1)Nc1c(Cl)ccc2c1-c1nccc3cccc(c13)C2=O"
78.4%

Form field: reported inhibition of "O=C(CCN1CCCCC1)Nc1c(Cl)ccc2c1-c1nccc3cccc(c13)C2=O"
74.6%

Form field: reported inhibition of "O=C(CCCCCN1CCCCC1)Nc1c(Cl)ccc2c1-c1nccc3cccc(c13)C2=O"
67.7%

Form field: reported inhibition of "O=C(CCCN1CCCCC1)Nc1cccc2c1C(=O)c1cccc3ccnc-2c13"
61.3%

Form field: reported inhibition of "COc1cc(/C=C/C(=O)CC(=O)/C=C/c2ccc(O)c(OC)c2)ccc1O"
45.1%

Form field: reported inhibition of "O=C(CN1CCCCC1)Nc1c(Cl)ccc2c1-c1nccc3cccc(c13)C2=O"
51.3%
